Data origin: ChEMBL document CHEMBL1201862

Test system: Streptococcus
Assay: Group A Streptococcus viability loss, dose response, counter-screen for streptokinase expression inhibitor project, luminescence, BacTiterGlo (AID 1915);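 also: potency for reduction of bacterial viability or growth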
Type: functional, organism-based
Active and inactive are the calls of the source.
Assign EC50 to each entry below.

Recorded results for 4 compounds are shown here.
| compound | val |
| --- | --- |
| CN(CC1CCCO1)S(=O)(=O)c1ccc(C(=O)Nc2ccc(F)cc2)cc1 (stereo not given) | > 150 µM (not active) |
| COC(=O)c1c(C)[nH]c(C(=O)OCC(=O)N(CC(C)C)c2c(N)n(Cc3ccccc3)c(=O)[nH]c2=O)c1C | > 150 µM (not active) |
| CCc1nn(CCCC(=O)NCc2ccccc2Br)c(=O)c2cc3occc3n12 | > 150 µM (not active) |
| COc1ccc(/C=N/n2c(C)nc3c4ccccc4nc-3c2O)cc1CN1CCCC(C)(C)C1 | > 150 µM (not active) |

Let's switch to this compound now.
Given the entry O=C(Nc1ccc(N2CCCC2)c(S(=O)(=O)Nc2cccc(C(F)(F)F)c2)c1)c1cccs1 , what EC50 was observed with Streptococcus?
10.5 µM (active)

---

Target: Genome polyprotein (dengue virus type 2)
Test: Dengue-2 NS5 methyltransferase inhibitors, primary screen, biochemical, confirmation dose response (AID 588689)
Assay type: functional
Active and inactive are the calls of the source.
propertyMeasured: IC50

Example results:
| compound | IC50 |
| --- | --- |
| CC1=C/C(=C(/c2cc(C)c(O)c(Br)c2)c2ccccc2S(=O)(=O)O)C=C(Br)C1=O | 38 µM (active) |
| Oc1cc(CNC2CCCCC2)c(O)cc1CNC1CCCCC1 | 27.4 µM (active) |
| O=C(O)CCN1C(=O)/C(=C2\C(=O)N(Cc3ccc(F)cc3)c3ccccc32)SC1=S | 41.2 µM (active) |
| O=C(O)/C=C/C(=O)c1ccc(O)cc1 | > 100 µM (active) |
| CN(C)S(=O)(=O)c1cccc(-c2nn(-c3ccccc3)cc2/C=C2\SC(=S)N(CC(=O)O)C2=O)c1 | 79.5 µM (active) |

State recorded IC50 for all listed compounds.
1. Cc1cccc(NC(=O)c2cc(NC(=O)C3CCCCC3C(=O)O)ccc2N2CCCCC2)c1 (stereo not drawn)
2. C=CCOc1ccc(/C=C2\SC(=S)N(NS(=O)(=O)c3ccccc3)C2=O)cc1

1: 37.7 µM (active); 2: 30.4 µM (active)

IC50 for CCc1nnc(NS(=O)(=O)c2ccc(NC(=S)NC(=O)/C=C/c3ccc(F)cc3)cc2)s1 ?
39.3 µM (active)

---

Molecular target: High affinity choline transporter 1 (Homo sapiens)
Sequence (Q9GZV3 whole entry): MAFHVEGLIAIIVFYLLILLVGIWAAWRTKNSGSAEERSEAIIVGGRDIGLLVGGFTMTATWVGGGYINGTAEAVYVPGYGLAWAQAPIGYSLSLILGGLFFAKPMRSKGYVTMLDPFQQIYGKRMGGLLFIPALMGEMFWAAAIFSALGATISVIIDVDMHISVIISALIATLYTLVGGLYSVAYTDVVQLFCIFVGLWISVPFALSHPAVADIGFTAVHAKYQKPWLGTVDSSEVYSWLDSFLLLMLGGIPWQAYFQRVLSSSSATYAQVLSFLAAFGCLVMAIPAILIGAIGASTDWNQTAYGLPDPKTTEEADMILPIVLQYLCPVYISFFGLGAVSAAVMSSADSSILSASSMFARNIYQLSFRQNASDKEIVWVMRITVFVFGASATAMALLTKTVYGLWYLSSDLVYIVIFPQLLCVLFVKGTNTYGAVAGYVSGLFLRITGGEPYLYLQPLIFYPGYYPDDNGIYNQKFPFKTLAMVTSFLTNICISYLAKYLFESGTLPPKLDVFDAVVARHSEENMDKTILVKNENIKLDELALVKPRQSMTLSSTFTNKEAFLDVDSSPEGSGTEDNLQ
Test: CHT inhibitors, dose response, cell-based, 5-point CRC, membrane potential dye (AID 504840)
Type: functional
The source made the active and inactive calls.
propertyMeasured: IC50

The following compounds have reported results that may help.
| chemicalString | val |
| --- | --- |
| O=C(c1c(O)c2ccccc2oc1=O)C1CCCCC1 | 10 µM (active) |
| COc1ccc(C(=O)N[C@H]2CCCCNC2=O)cc1OC1CCN(C(C)C)CC1 | 15.1 µM (active) |
| O=C(O)c1cccc2c1/C(=N/Nc1ccc([N+](=O)[O-])cc1[N+](=O)[O-])c1ccccc1-2 | 15.2 µM (active) |
| CCCN1CCC(Oc2cccc(C(=O)NCCc3ccccc3)c2)CC1 | 10 µM (active) |
| CCOC(=O)c1oc2nc(CC(C)C)c3c(c2c1N)CCCC3 | 12.9 µM (active) |
| COc1ccc(C2(C(=O)Nc3ccc(S(=O)(=O)Nc4nc(C)cc(C)n4)cc3)CCCC2)cc1OC | 12.3 µM (active) |
| c1ccc(CN2CCN(c3nc4ccccc4n4cnnc34)CC2)cc1 | 1.82 µM (active) |

Given Cc1onc(-c2ccccc2Cl)c1C(=O)Nc1nnc(-c2cccc([N+](=O)[O-])c2)s1 , state its recorded IC50.
19.1 µM (active)
